- Protocol Summary: blockers of HIV-1 envelope-mediated cell-cell fusion – cherry-pick, dose response (AID 652057)
- Reported Conditions: HeLa-JRFL Env/CEM21 cell fusion, luciferase; series mostly up to 35 µM
Out of some 1,400 compounds screened, about 1,000 (71%) were called active. So high a share suggests a set chosen from earlier hits. The list is a sample of the results. Entries with a potency or affinity are not part of this list.

Compound: Cc1ccc(-n2nc3c(c2NC(=O)c2ccco2)CS(=O)C3)cc1 (centres undefined)
activity change, negative = inhibition: inactive
//
Compound: CCn1ncc(C2=NOC(C(=O)Nc3ccc(C)cc3)C2)c1C (centres undefined)
activity change, negative = inhibition: inactive
//
Compound: CC(C)NC(=O)N(C)C[C@@H]1Oc2ccc(NC(=O)C3CC3)cc2CC(=O)N([C@@H](C)CO)C[C@@H]1C
activity change, negative = inhibition: inactive
//
Compound: O=C1COc2ccc(-c3csc(=Nc4ccc(OC(F)F)cc4)n3CC3CCCO3)cc2N1 (centres undefined)
activity change, negative = inhibition: inactive
//
Compound: COc1ccc(NS(=O)(=O)c2ccc3c(c2)OCCO3)cc1OC
activity change, negative = inhibition: inactive
//
Compound: C[C@H](CO)N1C[C@H](C)[C@@H](CN(C)C(=O)NC2CCCCC2)Oc2c(cccc2N(C)C)C1=O
activity change, negative = inhibition: inactive
//
Compound: C[C@H]1CN([C@@H](C)CO)C(=O)c2cc(NS(=O)(=O)c3ccc(F)cc3)ccc2O[C@H]1CN(C)S(=O)(=O)c1ccc(F)cc1
activity change, negative = inhibition: inactive
//
Compound: Cn1c(SCc2nc(-c3ccc(Cl)cc3)no2)nnc1-c1cccs1
activity change, negative = inhibition: inactive
//
Compound: CNC[C@@H]1Oc2c(N)cccc2C(=O)N([C@@H](C)CO)C[C@@H]1C
activity change, negative = inhibition: inactive

----------
- Protocol Summary: blockers of HIV-1 envelope-mediated cell-cell fusion – cherry-pick, dose response (AID 652057)
- Reported Conditions: HeLa-JRFL Env/CEM21 cell fusion, luciferase; series mostly up to 35 µM
Hit rate of the full screen: of about 1,400 compounds, about 1,000 (71%) were called active. The set was probably picked from earlier hits. A selection follows. Entries with a potency or affinity are not part of this list.

Compound: COc1ccc(CCNC(=O)C2CCCN(Cc3nc(-c4cccc(Cl)c4)oc3C)C2)cc1OC (centres undefined)
activity change, negative = inhibition: inactive

Compound: COCc1[nH]nc2c1C(c1ccc(F)cc1)N(Cc1ccccc1)C2=O (centres undefined)
activity change, negative = inhibition: inactive

Compound: COc1ccccc1-c1c(-c2ccc(O)cc2O)n[nH]c1C(F)(F)F
activity change, negative = inhibition: inactive

Compound: Cc1ccc(S(=O)(=O)N(C)C[C@@H]2Oc3cc(C#CC4CCCC4)ccc3S(=O)(=O)N([C@H](C)CO)C[C@H]2C)cc1
activity change, negative = inhibition: inactive

Compound: C[C@H]1CN([C@@H](C)CO)C(=O)c2cccc(NC(=O)Nc3ccc(C(F)(F)F)cc3)c2O[C@H]1CN(C)S(=O)(=O)c1ccccc1
activity change, negative = inhibition: inactive

Compound: Cn1cccc1C(=O)OCC(=O)NCCc1ccc(S(N)(=O)=O)cc1
activity change, negative = inhibition: inactive

Compound: CN(C)CC(=O)Nc1ccc2c(c1)[C@H]1C[C@@H](CC(=O)NCCc3ccccc3)O[C@H](CO)[C@H]1O2
activity change, negative = inhibition: inactive

Compound: COc1ccc(CCCC(=O)NCCc2ccccc2)c(C)c1
activity change, negative = inhibition: inactive

Compound: O=C(Nc1ccc(F)cc1)Nc1ccc2c(c1)[C@H]1C[C@@H](CC(=O)N3CCCCC3)O[C@H](CO)[C@H]1O2
activity change, negative = inhibition: inactive

Origin of measurements: PubChem BioAssay AID652057
